Where do these numbers come from? They come from patent US20030148958A1.

# assayed target: T1, corticotropin releasing factor 2 receptor
# T1 sequence (Q13324 whole entry, species assumed, looked up): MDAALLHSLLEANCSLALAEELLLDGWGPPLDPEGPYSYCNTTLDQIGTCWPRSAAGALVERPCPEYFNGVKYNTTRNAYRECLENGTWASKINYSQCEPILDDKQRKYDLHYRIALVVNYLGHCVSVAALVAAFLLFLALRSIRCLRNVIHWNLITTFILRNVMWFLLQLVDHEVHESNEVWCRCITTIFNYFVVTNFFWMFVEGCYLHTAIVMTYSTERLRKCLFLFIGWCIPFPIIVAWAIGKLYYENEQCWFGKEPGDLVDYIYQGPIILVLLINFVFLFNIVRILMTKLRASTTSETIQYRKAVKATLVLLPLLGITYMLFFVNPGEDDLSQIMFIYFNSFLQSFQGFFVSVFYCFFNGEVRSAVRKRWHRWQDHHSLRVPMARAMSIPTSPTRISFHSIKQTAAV
# assay notes: cell-based or functional assay
Ends that are not written are not given here.
Each entry below carries its reported CRF2R EC50.
measurement label: CRF2R EC50 (nM)

[[record]]
binder = "ZGPPISIDLPTWLLRKMIEIEKQEKEKQQAANNRLLLDTI (C-terminal amide) [SEQ ID NO 41]"
measurement_label = "CRF2R EC50"
operator_symbol = "="
test_result = 18.3

[[record]]
binder = "SQEIVLSLDVPIGLLREVLEMTKADQLAQQAHSNRKLLDIA-NH2 [SEQ ID NO 152]"
measurement_label = "CRF2R EC50"
operator_symbol = ">"
test_result = 100

[[record]]
binder = "IVLSLDVPIGLLQILLEQERARAAREQATTNARILARV-NH2 [SEQ ID NO 119]"
measurement_label = "CRF2R EC50"
operator_symbol = "="
test_result = 3.57

